biological target: HIV-RT (purified RT from HIV-1, expressed in E. coli) (Human immunodeficiency virus type 1 group M subtype B); construct: purified RT from HIV-1; assay: Inhibition of HIV-1 reverse transcriptase (RT), [3H]-thymidine-5'-triphosphate incorporation; settings: purified recombinant HIV-1 RT; HIV-LTR in vitro transcript template, 18 mer primer
The following compounds are listed with their measured IC50 values.
Kindly answer with a numeric value in nM, unit omitted.

COMPOUND: COc1cccc(C23SCCN2C(=O)c2ccccc23)c1 (stereo not shown)
IC50 [nM]: 1100

If you can, please state the reported IC50 value of Cc1cccc(C23SCCN2C(=O)c2ccccc23)c1C (stereo not shown) .
800

If you can, please state the reported IC50 value of Cc1cn([C@H]2C[C@H](N=[N+]=[N-])[C@@H](CO[P@](=O)(O)O[P@](=O)(O)OP(=O)(O)O)O2)c(=O)[nH]c1=O [AZT-TP, reference compound] .
6000

If you can, please state the reported IC50 value of O=C1c2ccccc2C2(c3ccccc3)SCCN12 (stereo not shown) .
700
